Test system: NCI-H522 lung
measurement-protocol: NCI-60 one-dose screen, 48 h
condition-details: 10 µM unless noted
This is part of a sample that, as a whole, favours compounds with a hit. Of some 83,000 tested, about 20% had one in any assay. Active and inactive are the calls of the source. The calls were made as follows: active = growth percent below 10; inactive = the rest.
# output must be one of y for active, n for inactive

Record excerpt, results attached:
compound	assigned-category
[Cl][Ru].c1ccc(-c2cc(-c3ccccn3)nc(-c3ccccn3)c2)cc1.c1ccc(-c2ccnc3c2ccc2c(-c4ccccc4)ccnc23)cc1	y
Cc1ccc(C(=O)Nc2cccc(C(F)(F)F)c2)cc1Nc1nc(-c2cnccn2)nc2c1cnn2C	n
COc1ccc(C(=O)/C=C/c2ccc(OCc3ccc(C)cc3)c(OC)c2)cc1OC	n
COc1ccc2[nH]cc(-c3cc(N)n4nc(-c5c[nH]c6ccc(OC)cc56)cc4n3)c2c1	n
COc1ccc(CNS(=O)(=O)/N=C2\NC(=O)NC2=C(Cl)Cl)cc1	y
COc1cc(/C=C/C(=O)c2ccc(Cl)cc2)ccc1Oc1nc(NCCO)nc(N2CCOCC2)n1	n

Query block: Hi, sorry to bother you, what did the test record for CCCC(=O)NC(c1ccc(N(CC)CC)cc1)c1cc(C)c2cccnc2c1O (centres undefined) ?
Result block: n

Query block: Hi, sorry to bother you, what did the test record for O=C1Nc2cc(Cl)ccc2/C1=C\c1ccc(OCc2ccc(Br)cc2F)cc1 ?
Result block: y

Query block: Hi, sorry to bother you, what did the test record for O=C(CSc1nc2sc3c(c2c(=O)n1-c1ccc(Cl)cc1)CCCC3)N/N=C/c1ccc(F)cc1 ?
Result block: n
